Source: patent US20250340591A1

target: UniProtKB O43194; test: luciferase assay system (SRE luciferase reporter gene, CV-1 cells expressing GPR39); assay type: cell-based; set-up: expressed in transfected cells; host or cells: CV-1 fibroblast cell line (Korea Cell Line Bank), adenoviral transduction at 50 MOI
Sequence (O43194 whole entry): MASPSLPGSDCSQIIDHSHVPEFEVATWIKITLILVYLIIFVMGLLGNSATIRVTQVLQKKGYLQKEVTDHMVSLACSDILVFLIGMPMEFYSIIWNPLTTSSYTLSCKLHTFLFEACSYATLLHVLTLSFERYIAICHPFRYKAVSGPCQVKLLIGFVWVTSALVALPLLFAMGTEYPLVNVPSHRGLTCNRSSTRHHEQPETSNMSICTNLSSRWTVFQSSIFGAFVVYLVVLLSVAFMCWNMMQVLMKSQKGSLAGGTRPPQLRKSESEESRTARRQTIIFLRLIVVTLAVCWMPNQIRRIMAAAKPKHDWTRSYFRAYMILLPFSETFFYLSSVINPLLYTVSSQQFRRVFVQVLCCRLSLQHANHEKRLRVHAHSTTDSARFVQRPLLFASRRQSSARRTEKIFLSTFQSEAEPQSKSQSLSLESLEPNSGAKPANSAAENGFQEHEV
Square brackets hold non-standard residues; d marks the D form. Peptide text beside a SMILES is read from it. * marks the point of attachment. His(τ-CHPh2) = N[C@@H](Cc1cn(C(c2ccccc2)c2ccccc2)cn1)C(=O)O; Tyr(3-NO2) = N[C@@H](Cc1ccc(O)c([N+](=O)[O-])c1)C(=O)O; dPhe(4-Me) = Cc1ccc(C[C@@H](N)C(=O)O)cc1; Octanoyl = CCCCCCCC(=O)*
parameterMeasured: ECmax (−fold induction over basal)
One number for each entry, in fold induction over basal.

# molecule, testSystem, ECmax (−fold induction over basal)
rows = [
    ("CCCCCCCC(=O)NCCCC[C@H](NC(=O)[C@@H](N)Cc1cn(CCC2CCCCC2)cn1)C(=O)N[C@@H](Cc1ccccc1)C(=O)N[C@@H](Cc1ccc(O)cc1)C(=O)O", "UniProtKB O43194", 22),
]

Consider the additional molecule presented here.
Ask | Would you kindly share the measured ECmax (−fold induction over basal) for CCCCCCCC(=O)NCCCC[C@H](NC(=O)[C@@H](N)Cc1cn(C(c2ccccc2)c2ccccc2)cn1)C(=O)N[C@H](Cc1ccc(C)cc1)C(=O)N[C@@H](Cc1ccc(O)c([N+](=O)[O-])c1)C(=O)O [HKFY-68] (H-[His(τ-CHPh2)]K(Octanoyl)[dPhe(4-Me)][Tyr(3-NO2)]-OH) ?
Reply | 10.8
